Reference source for all entries: ChEMBL document CHEMBL1201862

measurement_target: UniProtKB P42574
Sequence (P42574 29-175 limits assumed): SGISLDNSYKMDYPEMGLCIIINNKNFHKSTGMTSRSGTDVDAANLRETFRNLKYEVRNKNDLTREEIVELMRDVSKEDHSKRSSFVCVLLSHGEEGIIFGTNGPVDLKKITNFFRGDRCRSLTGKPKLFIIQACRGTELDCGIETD
Sequence (P42574 176-277 limits assumed): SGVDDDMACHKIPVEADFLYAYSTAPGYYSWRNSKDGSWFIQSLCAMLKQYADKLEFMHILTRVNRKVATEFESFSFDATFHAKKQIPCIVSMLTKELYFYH
Assay type: functional
Activity calls are given as the source filed them.
# reported IC50; entries follow

| structure_notation | IC50 |
| --- | --- |
| O=[N+]([O-])c1ccc(N/N=N/c2ccccc2)cc1 | 45 µM (active) |
| CCCC[n+]1ccn(C2=C([N-]S(=O)(=O)c3ccc(Cl)cc3)C(=O)c3ccccc3C2=O)c1 | 55.7 µM (active) |
| CCOC(=O)c1ccc(Nc2cnc3ccccc3n2)cc1 | 64.6 µM (active) |
| CC(=O)c1cccc2c1N=C(c1[nH]c3ccccc3c1O)C2=O | 11.1 µM (active) |

---

measurement_target: Paired box protein Pax-8 (Homo sapiens)
Sequence (Q06710 whole entry): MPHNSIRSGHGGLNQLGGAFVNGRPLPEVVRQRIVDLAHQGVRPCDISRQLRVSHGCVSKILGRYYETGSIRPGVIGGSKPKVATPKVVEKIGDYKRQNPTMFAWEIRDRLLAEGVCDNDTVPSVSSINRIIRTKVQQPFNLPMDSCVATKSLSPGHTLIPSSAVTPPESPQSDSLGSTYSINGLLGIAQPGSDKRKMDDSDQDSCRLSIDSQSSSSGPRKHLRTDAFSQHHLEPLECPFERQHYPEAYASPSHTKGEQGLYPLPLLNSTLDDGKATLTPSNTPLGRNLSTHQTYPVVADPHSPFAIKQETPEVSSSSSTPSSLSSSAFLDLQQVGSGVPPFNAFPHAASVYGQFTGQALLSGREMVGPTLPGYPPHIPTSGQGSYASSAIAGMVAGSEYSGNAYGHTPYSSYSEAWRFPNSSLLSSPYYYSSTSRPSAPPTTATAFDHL
protocol_summary: inhibitors of PAX8-driven TPO luciferase reporter, dose response, RMG-I cells, cherry-pick (AID 687027);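 further: luciferase reporter driven by Pax8 target thyroperoxidase promoter measured by SteadyGlo luminescence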
Type: functional, cell-based
Active and inactive are the calls of the source.
# reported AC50; entries follow
readout_label: AC50

| molecule | readout_label | test_value |
| --- | --- | --- |
| CC1=C(N2CC2)C(=O)C(CO)=C(N2CC2)C1=O | AC50 | < 0.26 µM (active) |
| C[C@@H]1CN([C@H](C)CO)C(=O)c2cc(NC(=O)Nc3ccccc3)ccc2O[C@@H](C)CCCCO[C@H]1CN(C)Cc1ccc(C(F)(F)F)cc1 | AC50 | 10.9 µM (active) |
| C[C@@H]1CCCCO[C@@H](CN(C)S(=O)(=O)c2ccc(Cl)cc2)[C@H](C)CN([C@@H](C)CO)C(=O)c2cc(N(C)C)ccc2O1 | AC50 | 3.28 µM (active) |
| Oc1nc2ccccc2n1C1CCN(C(c2cc3ccccc3o2)c2nnnn2Cc2ccccc2)CC1 (stereo unspecified) | AC50 | 6.31 µM (active) |
| CCCN(C)C[C@H]1OCCCC[C@@H](C)Oc2ccc(NC(=O)Nc3ccc(C(F)(F)F)cc3)cc2C(=O)N([C@H](C)CO)C[C@H]1C | AC50 | 23.1 µM (active) |
| C[C@@H]1CN([C@@H](C)CO)C(=O)Cc2cc(NS(=O)(=O)c3ccc(Cl)cc3)ccc2O[C@H]1CN(C)Cc1ccc(Cl)c(Cl)c1 | AC50 | 4.26 µM (active) |
| O=C(Nc1ccc(Cl)cc1)Nc1ccc(N2CCCC2)c(S(=O)(=O)Nc2ccccc2Cl)c1 | AC50 | 5.13 µM (active) |
| C[C@@H]1CN([C@H](C)CO)C(=O)c2cc(NS(=O)(=O)c3ccc(F)cc3)ccc2O[C@@H](C)CCCCO[C@@H]1CN(C)Cc1ccccc1 | AC50 | 7.31 µM (active) |
| COc1ccc(N(C(=O)CCl)C(C(=O)NC2CCCCC2)c2cccnc2)cc1 (stereo unspecified) | AC50 | 1.3 µM (active) |
| C[C@@H]1CCCCO[C@@H](CN(C)Cc2ccc(Cl)c(Cl)c2)[C@H](C)CN([C@@H](C)CO)C(=O)c2cc(NC(=O)Nc3ccc(C(F)(F)F)cc3)ccc2O1 | AC50 | 5.08 µM (active) |
| CCC1CCCCN1S(=O)(=O)c1ccc(NC(=O)c2nc(S(C)(=O)=O)ncc2Cl)cc1 (stereo unspecified) | AC50 | 5.67 µM (active) |
